These measurements were taken from paper PMC5540273.

# Test system: PRKR
# Construct: gene EIF2AK2
# condition.set: concentration: 1 μM, replicates: in singlicate; n = 1;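 note: KINOMEscan kinase panel screen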
quantity.name: %Inh (%)
Number only, in %; omit the unit.

Worked examples follow.
compound: COCCOCCOc1cc2ncc3c4ccc(C#N)cc4[nH]c3c2cc1OC
%Inh [%]: 41

compound: CCc1ccc(-c2ccc3c(c2)-c2c(cnn2C)S(=O)(=O)N3C)cc1
%Inh [%]: 6

compound: O=C(Nc1cccc(Oc2ccc3nc(NC(=O)C4CC4)cn3n2)c1)c1ccccc1C(F)(F)F
%Inh [%]: 8

compound: FC(F)(F)c1ccc(/C=C/c2cncnc2Nc2ccc3[nH]c(Cc4ccccc4)nc3c2)cc1 [GW709199]
%Inh [%]: 2

Okay, next one:
Record request: %Inh value, item CN1CCN(CCCNc2nccc(-c3c(-c4ccc(F)cc4)nn4cc(C(F)(F)F)ccc34)n2)CC1 [GW621581]
0

----------
Below, each of the molecules is paired with its reported %Inh value.
# System: MLCK
# Construct: gene MYLK3
# condition.set: concentration: 1 μM, replicates: in singlicate; n = 1
Number only, in %; omit the unit.

molecule: Cl.c1ccc(-c2ccc3c(Nc4ccc5[nH]ccc5c4)ccnc3c2)nc1 [GW440138]
readout.units: %
%Inh: 0

molecule: COc1ccc(CNC(=O)NC2CCN(c3ccnc(Nc4ccc(F)cc4)n3)CC2)cc1 [GSK1379788]
readout.units: %
%Inh: 0

molecule: O=c1[nH]cc(-c2ccc(N3CCOCC3)cc2)c2sc(-c3cn[nH]c3)cc12 [GSK2276055]
readout.units: %
%Inh: 19

molecule: CCn1c(-c2nonc2N)nc2c(C#CC(C)(C)O)ncc(OCCCCN)c21.O=C(O)C(F)(F)F.O=C(O)C(F)(F)F [GSK507274]
readout.units: %
%Inh: 13

molecule: Cc1ccc(F)c(C(=O)Nc2cccc(-c3nn4ccccc4c3-c3ccnc(Nc4cccc(F)c4)n3)c2)c1F [GSK361061]
readout.units: %
%Inh: 5

Record request: %Inh value, item Cl.Cl.NCC(C(=O)Nc1cc(Br)c(-c2ccnc3[nH]ccc23)s1)c1ccccc1 (centres unmarked) [GSK1269851]
98.7

Record request: %Inh value, item Cl.c1ccc(-c2ccc3c(Nc4ccc5[nH]ncc5c4)ccnc3c2)nc1 [GW440137]
15

Record request: %Inh value, item Cn1cc(-c2ccc3c(c2)CCN3C(=O)Cc2cccc(Cl)c2)c2c(N)ncnc21 [GSK2606590]
6

Record request: %Inh value, item COc1cc(Nc2nccc(N3CCC(NC(=O)c4cc5ccccc5s4)C3)n2)cc(OC)c1OC (centres unmarked) [GSK1379760]
0

Record request: %Inh value, item Cc1ccc(S(=O)(=O)Nc2ccc(Nc3nccc(Nc4cccc5[nH]ncc45)n3)cc2)cc1 [GSK581271]
0

----------
Below, each of the compounds is paired with its reported %Inh value.
# System: TEC
# condition.set: concentration: 1 μM, replicates: in singlicate; n = 1
Number only, in %; omit the unit.

Worked examples follow.
compound: CC(C)(C)c1ccc2nccc(Nc3cccc(O)c3)c2c1
system.under.test: TEC
%Inh / %: 12

compound: Cc1ccc(C(=O)N2CC[C@@H](O)C2)cc1-n1c(C)cc(OCc2ccc(F)cc2F)c(Br)c1=O
system.under.test: TEC
%Inh / %: 0

compound: Oc1cc(Nc2ccnc3cc(I)ccc23)ccc1F
system.under.test: TEC
%Inh / %: 12

Record request: %Inh value, item COc1cccc(NC(=O)NC2CCN(c3ccnc(Nc4cc(OC)c(OC)c(OC)c4)n3)C2)c1 (centres unmarked)
5

Record request: %Inh value, item "CCc1ccc(-c2ccc3c(c2)-c2c(cnn2C)S(=O)(=O)N3C)cc1"
0

----------
# Test system: MET
# condition.set: concentration: 1 μM, replicates: in singlicate; n = 1
Below, each of the compounds is paired with its reported %Inh value.
Number only, in %; omit the unit.

GET /values?readout=%Inh&system=MET&item= CCCCc1nn2ncccc2c1-c1ccnc(Nc2ccc(N3CCN(C)CC3)cc2)n1 [GW684941]
8

GET /values?readout=%Inh&system=MET&item= c1ccc(-c2cnc3nccnn23)cc1 [AH20685]
0

GET /values?readout=%Inh&system=MET&item= Cc1ccc(S(=O)(=O)Nc2ccc(Nc3nccc(Nc4cccc5[nH]ncc45)n3)cc2)cc1 [GSK581271]
0

GET /values?readout=%Inh&system=MET&item= "O=C(Nc1cccc(Oc2ccc3nc(NC(=O)C4CC4)cn3n2)c1)c1ccccc1C(F)(F)F"
7

GET /values?readout=%Inh&system=MET&item= O=c1[nH]cc(-c2ccc(N3CCOCC3)cc2)c2sc(-c3cn[nH]c3)cc12 [GSK2276055]
0

GET /values?readout=%Inh&system=MET&item= Nc1ncc(-c2cccnc2)c2scc(-c3ccc4c(c3)CCN4C(=O)Cc3ccccc3)c12 [GSK683281]
33

----------
Below, each of the compounds is paired with its reported %Inh value.
# System: ADCK4
# condition.set: concentration: 1 μM, replicates: in singlicate; n = 1
Number only, in %; omit the unit.

compound: Nc1ncnc2c1nc(-c1ccccc1)n2-c1ccccc1 [SKF-97293]
system.under.test: ADCK4
quantity.name: %Inh
value.observed: 0

Record request: %Inh value, item Clc1ccc(-c2nn3ncccc3c2-c2ccnc(Nc3ccc4c(c3)OCCO4)n2)cc1 [GW829116]
90.4

Record request: %Inh value, item COC(=O)Nc1nc2ccc(Oc3ccc(NC(=O)Nc4cc(C(F)(F)F)ccc4F)cc3)cc2n1C.Cl [GW692089]
33

Record request: %Inh value, item O=C(Nc1n[nH]c2nc(-c3ccc(O)cc3)ccc12)C1CC1 [SB-710363]
0

Record request: %Inh value, item Cn1cc(-c2ccc3c(c2)CCN3C(=O)Cc2cccc(Cl)c2)c2c(N)ncnc21 [GSK2606590]
1

Record request: %Inh value, item O=C(Nc1cccc(-c2nn3ccccc3c2-c2ccnc(Nc3cccc(C(F)(F)F)c3)n2)c1)c1c(F)cccc1F [GSK292658]
0

Record request: %Inh value, item O=C(Nc1cccc(-c2nn3ccccc3c2-c2ccnc(Nc3cccc(F)c3)n2)c1)c1c(F)ccc(F)c1Cl [GSK357952]
0

Record request: %Inh value, item FC(F)(F)c1ccc(/C=C/c2cncnc2Nc2ccc3[nH]c(Cc4ccccc4)nc3c2)cc1 [GW709199]
0

Record request: %Inh value, item CCn1c(-c2nonc2N)nc2c(C#CC(C)(C)O)nc(OC[C@H](N)c3ccccc3)cc21 [GSK943949]
0

Record request: %Inh value, item CN1CCN(CCCNc2nccc(-c3c(-c4ccc(F)cc4)nn4cc(C(F)(F)F)ccc34)n2)CC1 [GW621581]
97.1

Record request: %Inh value, item Cc1occc1-c1ncc(OC[C@@H](N)Cc2c[nH]c3ccccc23)cc1-c1ccc2[nH]nc(C)c2c1.O=C(O)C(F)(F)F [GSK682037]
82

Record request: %Inh value, item Cc1ccc(C)c(NC(=O)NC2CCN(c3ccnc(Nc4ccc(F)cc4)n3)C2)c1 (stereo not drawn) [GSK1379720]
48

Record request: %Inh value, item Cc1cccc(Nc2nc(N[C@H]3CCNC3)ncc2C(N)=O)c1.Cl [GSK2197149]
0

Record request: %Inh value, item Fc1ccc(-c2ncn(C3CCNCC3)c2-c2ccnc(Oc3ccc(-c4ccccc4)cc3)n2)cc1 [SB-245391]
0

Record request: %Inh value, item CNC(=O)c1ccccc1Nc1nc(Nc2ccc(N3CCOCC3)cc2)ncc1Cl.Cl [GSK1576028]
44

----------
# System: EPHA1
# condition.set: concentration: 1 μM, replicates: in singlicate; n = 1
quantity.name: %Inh

molecular.string: CSc1cccc2c(-c3ccncn3)c(-c3ccc(F)cc3)nn12
quantity.name: %Inh
value.observed: 18%
//
molecular.string: CNC(=O)c1ccccc1Nc1nc(Nc2ccc(N3CCOCC3)cc2)ncc1Cl.Cl
quantity.name: %Inh
value.observed: 90.8%
//
molecular.string: CC(C)(C)c1ccc2nccc(Nc3cccc(O)c3)c2c1
quantity.name: %Inh
value.observed: 74%
//
molecular.string: COc1cccc(-c2ccc3c(NC(=O)C4CC4)n[nH]c3n2)c1
quantity.name: %Inh
value.observed: 20%

GET /values?readout=%Inh&system=EPHA1&item= "O=C(Nc1n[nH]c2cc(-c3ccoc3)ccc12)C1CC1"
13%

----------
# System: JAK3(JH1domain-catalytic)
# condition.set: concentration: 1 μM, replicates: in singlicate; n = 1
quantity.name: %Inh (%)
Number only, in %; omit the unit.

Worked examples follow.
molecule: Cl.Cl.NCC(NC(=O)c1cc(-c2ccccc2)c(-c2ccnc3[nH]ccc23)s1)c1ccccc1 (stereo not drawn) [GSK1321561]
%Inh [%]: 50
--
molecule: CSc1cccc2c(-c3ccncn3)c(-c3ccc(F)cc3)nn12 [GW514786]
%Inh [%]: 0
--
molecule: COc1cc(Nc2nccc(N3CCC(NC(=O)Nc4cccc(C(C)=O)c4)C3)n2)cc(OC)c1OC (stereo not drawn) [GSK1379753]
%Inh [%]: 0
--
molecule: Nc1n[nH]c2cnc(-c3ccccc3)cc12 [SB-642124]
%Inh [%]: 91
--
molecule: O=C(Nc1cccc(-c2nn3ccccc3c2-c2ccnc(Nc3cccc(C(F)(F)F)c3)n2)c1)c1c(F)cccc1F [GSK292658]
%Inh [%]: 0

GET /values?readout=%Inh&system=JAK3(JH1domain-catalytic)&item= Oc1cc(Nc2ccnc3cc(I)ccc23)ccc1F [GW552771]
0
